// provenance: patent US5814622A

biological target: human thrombin (Homo sapiens)
Returns: string. Value is label 1 if measured IC50 is below 4 nM, and label 0 if it is greater than or equal to it.

Worked examples, 3 molecules total:
molecule: Cl.N=C(N)NCCC[C@H](NC(=O)c1cccc(C23CCC(O)(CC2)CC3)c1)B(O)O [Ex. 69, hydrochloride]
class_assignment: label 0

molecule: N=C(N)NCCC[C@H](NC(=O)C1(C(=O)NCCc2ccccc2)CCCC1)B(O)O.O=S(=O)(O)c1ccccc1 [Ex. 83, benzenesulfonate]
class_assignment: label 1

molecule: Cl.N=C(N)NCCC[C@H](NC(=O)c1ccc(C23CCC(Cl)(CC2)CC3)cc1)B(O)O [Ex. 6, hydrochloride]
class_assignment: label 0

Regarding COC12CCC(c3ccc(C(=O)N[C@@H](CCCNC(=N)N)B(O)O)cc3)(CC1)CC2.Cl [Ex. 3, hydrochloride] , kindly confirm whether its IC50 is beneath 4 nM.
label 0
